Form field: GI50 (one value per entry).
Test system: HOP-92
Assay text: NCI tumour cell line growth inhibition, 48 h
The source made the active and inactive calls. No stated cut-off is given here; in the data, active = GI50 up to about 1.1 µM and inactive = higher.

Oc1cc(-c2ccc(Cl)cc2)cn2c1nc1ccccc12 = > 100 µM (inactive)
COc1ccc(C(C2=C(C)C(=O)c3ccccc3C2=O)c2ccc(C(C)C)cc(=O)c2O)cc1 (stereo unspecified) = 3.57 µM (inactive)
C=CCN1CN(C2CCCCC2)CSC1=S = 5.18 µM (inactive)
CC(C)[C@@H]1ON1C(C)c1ccccc1 (stereo partly specified) = > 100 µM (inactive)

Lookup: Query: GI50; subject: COc1ccc(C2=C(OC(C)=O)c3cccn3-c3ccc(Cl)cc3S2)cc1
Found: 1.3 µM (inactive)

Lookup: Also Nc1nc2c(ncn2Cc2ccc(CO)cc2)c(=O)[nH]1 ?
Found: > 100 µM (inactive)

Lookup: Proceed to Cc1cc2c(cc1C)N1C(Cl)=C3CCCCC3=C(C#N)C1N2 (stereo unspecified)
Found: 7.4 µM (inactive)
